System: Enterococcus faecalis
assay info: Minimum inhibitory concentration against Streptococcus faecalis MGH-2 in vitro.
Type: functional
Overview of recorded MIC for various compounds
API: value field is a number in µg/mL; no unit string.

Below are worked cases with known answers.
O=C(O)c1cn(C2CC2)c2nc(N3CCNCC3)c(F)cc2c1=O ... 1.6
CN(C)CC1CCN(c2c(F)cc3c(=O)c(C(=O)O)cn(C4CC4)c3c2N)C1.Cl (stereo not given) ... 0.4
NCC1CCN(c2nc3c(cc2F)c(=O)c(C(=O)O)cn3C2CC2)C1 (stereo not given) ... 0.025
CCNCC1CCN(c2nc3c(cc2F)c(=O)c(C(=O)O)cn3C2CC2)C1 (stereo not given) ... 0.1
NC1CCN(c2nc3c(cc2F)c(=O)c(C(=O)O)cn3C2CC2)C1 (stereo not given) ... 0.2
O=C(O)c1cn(C2CC2)c2c(Cl)c(N3CCNCC3)c(F)cc2c1=O ... 0.4
O=C(O)c1cn(C2CC2)c2cc(N3CCNCC3)c(F)cc2c1=O ... 0.8
Cl.Nc1c(N2CCC(N)C2)c(F)cc2c(=O)c(C(=O)O)cn(C3CC3)c12 (stereo not given) ... 3.1

According to the records, this compound CN(C)CC1CCN(c2cc3c(cc2F)c(=O)c(C(=O)O)cn3C2CC2)C1 (stereo not given) displays MIC of 0.2

According to the records, this compound "Cl.O=C(O)c1cn(C2CC2)c2c([N+](=O)[O-])c(N3CCNCC3)c(F)cc2c1=O" displays MIC of 6.3

###

Overview of recorded log10 MIC for various compounds
Tested on: Klebsiella pneumoniae
assay info: Minimum inhibitory concentration against Klebsiella pneumoniae MGH-2 in vitro.
Type: functional
Scale: log10; quantity: MIC; unit before log: µg/mL

Below are worked cases with known answers.
NCC1CCN(c2c(F)cc3c(=O)c(C(=O)O)cn(C4CC4)c3c2F)C1 (stereo not given) ... -1.30
O=C(O)c1cn(C2CC2)c2cc(N3CCNCC3)c(F)cc2c1=O [CIPROFLOXACIN] ... -1.00
CC1COc2c(N3CCC(CN(C)C)C3)c(F)cc3c(=O)c(C(=O)O)cn1c23.Cl (stereo not given) ... -0.40
CC(C)NCC1CCN(c2c(F)cc3c(=O)c(C(=O)O)cn4c3c2OCC4C)C1 (stereo not given) ... -0.10
CNCC1CCN(c2c(F)cc3c(=O)c(C(=O)O)cn4c3c2OCC4C)C1 (stereo not given) ... -0.40

According to the records, this compound CCNCC1CCN(c2nc3c(cc2F)c(=O)c(C(=O)O)cn3C2CC2)C1 (stereo not given) displays log10 MIC of -1.00

According to the records, this compound CN(C)CC1CCN(c2cc3c(cc2F)c(=O)c(C(=O)O)cn3C2CC2)C1 (stereo not given) displays log10 MIC of -0.70

According to the records, this compound NCC1CCN(c2cc3c(cc2F)c(=O)c(C(=O)O)cn3C2CC2)C1 (stereo not given) displays log10 MIC of -1.30

According to the records, this compound CCNCC1CCN(c2cc3c(cc2F)c(=O)c(C(=O)O)cn3C2CC2)C1.Cl (stereo not given) displays log10 MIC of -0.70

According to the records, this compound CC1COc2c(N3CCC(N)C3)c(F)cc3c(=O)c(C(=O)O)cn1c23.Cl (stereo not given) displays log10 MIC of -0.40
